- Measured On: SARS-CoV-2 S1 domain, Wuhan (SARS-CoV-2, UniProt P0DTC2 16-681)
- Measurement Notes: ELISA, coated antigen; note: test concentration or dose not given here
Reported Metric: ELISA OD (OD)

Cv2.3235 (recombinant human IgG1) (antibody, V domains shown) VH: EVQLVESGGGLIQPGGSLRLSCAASGFTVSRNYMSWVRQAPGKGLEWVSVIYSGGSTFYADSVKGRFTISRDNSKNTLYLQMNSLRAEDTAVYYCARDGDYYGMDVWGQGTTVTVSS VL: DIQMTQSPSFLSASVGDRVTITCRASQGISSFLAWYQQKPGKAPKLLIYGASTLQSGVTSRFSGSGSGTEFTLTISSLQPEDFATYYCQRLDSYPPITFGQGTRLEIKR
3.9
Cv2.5213 (recombinant human IgG1) (antibody, V domains shown) VH: EVQLVESGGGLIQPGGSLRLSCAASGFTVSSNYMSWVRQAPGKGLEWVSLIYSGGSTYYADSVKGRFTISRDNSKNTLYLQMNSLRAEDTAVYYCARDLNYYGMDVWGQGATVTVSS VL: DIQMTQSPSSLSASVGDRVTITCRASQGISSYLAWYQQKPGKAPKLLIYAASTLQSGVPSRFSGSGSGTDFTLTISSLQPEDFATYYCQQLDSYSPFTFGPGTKVDIKR
3.5
Cv2.1353 (recombinant human IgG1) (antibody, V domains shown) VH: EVQLVESGGGLVQPGGSLRLSCAASGVTVSSNYMNWVRQAPGKGLEWVSVIYSGGSTFYADSVKGRFIISRDNSKNTLYLQMNSLKTEDTAVYYCARDLGPMGFDIWGQGTMVTVSS VL: DIQMTQSPSFLSASVGDRVTITCRASQGISSYLAWYQQKPGKAPKLLIYAASTLQSGVPSRFSGSGSGTEFTLTISSLQPEDFATYYCQQLNSDPPVTFGPGTKVDIKR
3.5
